Measured values drawn from paper PMC6471177 for this set.

Assay: Pharmacokinetics of intravenous docetaxel with oral LC478 in rats
Type: in vivo, Sprague–Dawley rats
Conditions: male, Sprague-Dawley, rat, plasma, iv, 20 mg/kg, rats, docetaxel 20 mg/kg intravenous, with 30 mg/kg oral LC478
property.name: MRT (min)
Return type: number; implicit unit min.

Inquiry: Entry under review: CC(=O)O[C@@]12CO[C@@H]1C[C@H](O)[C@@]1(C)C(=O)[C@H](O)C3=C(C)[C@@H](OC(=O)[C@H](O)[C@@H](NC(=O)OC(C)(C)C)c4ccccc4)C[C@@](O)([C@@H](OC(=O)c4ccccc4)[C@H]21)C3(C)C . Reported MRT?
Reply text: 58
